- Test details: Inhibition of HIV1 reverse transcriptase K103N/Y188C double mutant infected in human MT4 cells assessed as protection against virus-induced cytopathic effect by MTT assay
pIC50: −log10 of the molar value.
Each item that follows carries a reported pIC50.
Measurement type: pIC50

item_smiles=Cc1cc(C#N)cc(C)c1Oc1nc(Nc2ccc(C#N)cc2)ncc1[N+](=O)[O-] endpoint_result=6.71
item_smiles=Cc1cc(C#N)cc(C)c1Nc1ccnc(Nc2ccc(C#N)cc2)n1 endpoint_result=7.43
item_smiles=CC(=O)Nc1cnc(Nc2ccc(C#N)cc2)nc1Oc1c(C)cc(C#N)cc1C endpoint_result=7.52
item_smiles=Cc1cc(C#N)cc(C)c1Nc1nc(Nc2ccc(C#N)cc2)ncc1Cl endpoint_result=7.16
item_smiles=Cc1cc(C#N)cc(C)c1Nc1nc(Nc2ccc(C#N)cc2)ncc1C#N endpoint_result=6.74
item_smiles=Cc1cc(Br)cc(C)c1Sc1ccnc(Nc2ccc(C#N)cc2)n1 endpoint_result=6.45
item_smiles=Cc1cc(C#N)cc(C)c1Nc1nc(Nc2ccc(C#N)cc2)ncc1Br endpoint_result=7.49
item_smiles=Cc1cc(C#N)cc(C)c1Oc1nc(Nc2ccc(C#N)cc2)ncc1N endpoint_result=7.85
item_smiles=Cc1cnc(Nc2ccc(C#N)cc2)nc1Nc1c(C)cc(C#N)cc1C endpoint_result=6.79
item_smiles=C=Cc1cnc(Nc2ccc(C#N)cc2)nc1Nc1c(C)cc(C)cc1C endpoint_result=6.97
item_smiles=Cc1cc(C#N)cc(C)c1Oc1ccnc(Nc2ccc(C#N)cc2)n1 endpoint_result=7.03
item_smiles=C#Cc1cnc(Nc2ccc(C#N)cc2)nc1Nc1c(C)cc(C)cc1C endpoint_result=7.38

====

Each item that follows carries a reported log10(IC50).
- Test details: Inhibition of HIV1 reverse transcriptase Y188L mutant infected in human MT4 cells assessed as protection against virus-induced cytopathic effect by MTT assay
Measurement type: log10(IC50) (log10 of the value in nM)

item_smiles=N#Cc1ccc(Nc2nc(N)nc(Cc3c(Cl)cccc3Cl)n2)cc1 measurement_type=log10(IC50) endpoint_result=2.50
item_smiles=Cc1cc(C#N)cc(C)c1Oc1nc(Nc2ccc(C#N)cc2)ncc1N measurement_type=log10(IC50) endpoint_result=0.76
item_smiles=Cc1cc(C#N)cc(C)c1Nc1nc(Nc2ccc(C#N)cc2)ncc1Br measurement_type=log10(IC50) endpoint_result=0.52
item_smiles=Cc1cc(C#N)cc(C)c1Nc1nc(Nc2ccc(C#N)cc2)ncc1Cl measurement_type=log10(IC50) endpoint_result=0.67
item_smiles=Cc1cc(C#N)cc(C)c1Nc1nc(Nc2ccc(C#N)cc2)ncc1C#N measurement_type=log10(IC50) endpoint_result=0.93
item_smiles=Cc1cc(Br)cc(C)c1Sc1ccnc(Nc2ccc(C#N)cc2)n1 measurement_type=log10(IC50) endpoint_result=1.64
item_smiles=Cc1cc(C#N)cc(C)c1Oc1nc(Nc2ccc(C#N)cc2)ncc1[N+](=O)[O-] measurement_type=log10(IC50) endpoint_result=2.89

====

- Test details: Inhibition of HIV1 reverse transcriptase Y188L mutant infected in human MT4 cells assessed as protection against virus-induced cytopathic effect by MTT assay
pIC50: −log10 of the molar value.
Measurement type: pIC50

item_smiles=Cc1cnc(Nc2ccc(C#N)cc2)nc1Nc1c(C)cc(C#N)cc1C qual== endpoint_result=7.80
item_smiles=Cc1cc(C#N)cc(C)c1Nc1ccnc(Nc2ccc(C#N)cc2)n1 qual== endpoint_result=8.11
item_smiles=N#Cc1ccc(Nc2nc(N)cc(Cc3c(Cl)cccc3Cl)n2)cc1 qual== endpoint_result=7.15
item_smiles=Cc1cc(C#N)cc(C)c1Oc1ccnc(Nc2ccc(C#N)cc2)n1 qual== endpoint_result=7.72
item_smiles=C=Cc1cnc(Nc2ccc(C#N)cc2)nc1Nc1c(C)cc(C)cc1C qual== endpoint_result=7.54
item_smiles=N#Cc1ccc(Nc2cc(N)nc(Cc3c(Cl)cccc3Cl)n2)cc1 qual=< endpoint_result=4.00
